Target: Histone deacetylase 2 (Homo sapiens, UniProt Q92769)
Sequence (Q92769 whole entry): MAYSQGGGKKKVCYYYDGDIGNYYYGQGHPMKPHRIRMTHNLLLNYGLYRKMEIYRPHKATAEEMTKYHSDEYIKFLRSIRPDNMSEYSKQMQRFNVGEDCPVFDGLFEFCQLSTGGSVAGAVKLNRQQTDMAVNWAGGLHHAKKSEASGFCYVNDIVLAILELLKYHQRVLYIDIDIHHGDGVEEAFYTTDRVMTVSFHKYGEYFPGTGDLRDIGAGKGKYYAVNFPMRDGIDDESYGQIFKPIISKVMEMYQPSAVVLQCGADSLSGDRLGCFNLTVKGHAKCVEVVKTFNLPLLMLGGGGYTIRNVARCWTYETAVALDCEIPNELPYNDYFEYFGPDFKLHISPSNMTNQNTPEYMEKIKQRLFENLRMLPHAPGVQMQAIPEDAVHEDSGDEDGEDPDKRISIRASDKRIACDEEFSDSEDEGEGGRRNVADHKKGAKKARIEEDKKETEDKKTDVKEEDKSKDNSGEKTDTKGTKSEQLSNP
Test: Inhibition of recombinant HDAC2 (unknown origin) using fluorogenic substrate Boc-Lys (acetyl)-AMC after 20 mins by homogeneous fluorescence release assay
pIC50: −log10 of the molar value.
quantity-measured: pIC50

Reference set, count: 2
Need pIC50, item COc1ccc(-c2noc(CNCc3ccc(C(=O)Nc4ccccc4N)cc3)n2)cc1
6.54

I am curious: what pIC50 value has been reported for Cc1ccc(-c2noc(CNCc3ccc(C(=O)Nc4ccccc4N)cc3)n2)cc1 ?
6.25

[I] O=C(NO)c1ccc(CNCc2nc(-c3ccc(Cl)cc3)no2)cc1
[II] Nc1ccccc1NC(=O)c1ccc(CNCc2nc(-c3ccc(Cl)cc3)no2)cc1
Smaller pIC50 value, I vs II ? Which one? Tell me its label.
I
(I: 5.07, II: 6.37)

[1] Nc1ccccc1NC(=O)c1ccc(CNCc2nc(-c3ccc(F)cc3)no2)cc1
[2] Nc1ccccc1NC(=O)c1ccc(CNCc2nc(-c3ccc([N+](=O)[O-])cc3)no2)cc1
// pick larger pIC50 from pair: 1 vs 2 Write down the label of the entry you select.
2
(2: 6.82, 1: 6.55)
